target: Nitric oxide synthase 3 (Bos taurus)
assay: Inhibition of full length N-terminal his-tagged bovine eNOS (2 to 1205 residues) expressed in Escherichia coli at 10 uM preincubated for 15 mins followed by NADPH addition and measured after 30 mins by HPLC analysis relative to control
condition_details: time 45.0 min
The source made the active and inactive calls. The calls are words filed in the database; no cut-off is given here.
parameter: inhibition

Look over these answered cases.
N=C(NCc1ccc(NS(=O)(=O)c2ccc([N+](=O)[O-])cc2)cc1)c1ccccc1 inactive
N=C(NCc1ccc(NS(=O)(=O)c2ccc([N+](=O)[O-])cc2)cc1)c1ccc(Cl)cc1 46%
Cc1ccc(S(=O)(=O)NCc2cccc(CNC(=N)c3ccc(C(F)(F)F)cc3)c2)cc1 28%
Br.Cc1ccc(S(=O)(=O)NCc2cccc(CNC(=N)c3ccccc3)c2)cc1 inactive
N=C(NCc1cccc(CNS(=O)(=O)c2ccc([N+](=O)[O-])cc2)c1)c1ccc(C(F)(F)F)cc1 26%

Send back Nitric oxide synthase 3 (Bos taurus) inhibition of Cc1ccc(S(=O)(=O)NCc2cccc(CNC(=N)c3ccc(Cl)cc3)c2)cc1 only.
18%

Send back Nitric oxide synthase 3 (Bos taurus) inhibition of N=C(NCc1cccc(CNS(=O)(=O)c2ccc([N+](=O)[O-])cc2)c1)c1ccc(Cl)cc1 only.
19%
